ASSAY_TARGET: T1, cTnI quality control product recombinant protein (human, UniProt P19429 1-210, limits assumed)
T1 construct: the assay paragraphs only say cTnI; also called cardiac troponin I; cTnI antigen
T1 sequence (P19429 whole entry): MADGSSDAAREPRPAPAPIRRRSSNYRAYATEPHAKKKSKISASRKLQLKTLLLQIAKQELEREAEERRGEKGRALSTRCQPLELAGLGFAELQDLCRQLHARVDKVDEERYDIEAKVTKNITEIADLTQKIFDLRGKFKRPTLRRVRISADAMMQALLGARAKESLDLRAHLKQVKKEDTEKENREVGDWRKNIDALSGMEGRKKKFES
PROTOCOL_NOTES: AMC biosensor, antibody on sensor
Some binders, each annotated with its measured kon.
Just the number please, in M⁻¹ s⁻¹, no unit attached.

Look over these answered cases.
BINDER	READOUT_UNITS	kon
Mutation 1-56 (antibody, V domains shown) VH: QVQLQQSGTELAKPGASVKFSCKASGYTFTTYWMYWIKQRPGQGLEWIGYLNPSSGHTDYNQRFKDKATLTADKSSSTAYMQLNSLTSEDSAVYYCARRYWGPFGMDYWGQGTSVTVSS VL: EIFLTQSPAIMSASPGEKVTMTCSASTSVSYVHWYQQKSGTSPKRWIYDTSKIASGIPVRFSGSGSGTSYSLTISSMEAEDAATYYCQQWSSNPYTFGGGTKLEIKR	M⁻¹ s⁻¹	14600
Mutation 1-46 (antibody, V domains shown) VH: QVQLQQSGTELAKPGASVKFSCKASGYTFTSYWMYWIKQRPGQGLEWIGYLNPSSGHTDYNQKFKDKATLTADKSSSTAYMQLNSLTSEDSAVYYCARRYFGPFGMDYWGQGTSVTVSS VL: EIFLTQSPAIMSASPGEKVTMTCSASTSVSYVHWYQQKSGTSPKRWIYDTSKLASGIPVRFSGSGSGTSYSLTISSMEAEDAATYYCQQWSSNPYTFGGGTKLEIKR	M⁻¹ s⁻¹	21200
Mutation 1-2 (antibody, V domains shown) VH: QVQLQQSGTELAKPGASVKFSCKASGYTFTSYWMYWIKQRPGQGLEWIGYINPSSGHTDYNQRFKDKATLTADKSSSTAYMQLNSLTSEDSAVYYCARRYWGPFGMDYWGQGTSVTVSS VL: EIFLTQSPAIMSASPGEKVTMTCSASSTVSYVHWYQQKSGTSPKRWLYDTSKLASGIPVRFSGSGSGTSYSLTISSMEAEDAATYYCQQWSSQPYTFGGGTKLEIKR	M⁻¹ s⁻¹	37900
Mutation 1-42 (antibody, V domains shown) VH: QVQLQQSGTELAKPGASVKFSCKASGYTFTSYWMYWIKQRPGQGLEWIGYINPSSGHTDYNQKFKDKATLTADKSSSTAYMQLNSLTSEDSAVYYCARRYWGPFGMDYWGQGTSVTVSS VL: EIFLTQSPAIMSASPGEKVTMTCSASSTVSYVHWYQQKSGTSPKRWLYDTSKLASGIPVRFSGSGSGTSYSLTISSMEAEDAATYYCQQWSSNPYTFGGGTKLEIKR	M⁻¹ s⁻¹	49100
Mutation 1-55 (antibody, V domains shown, T0002 combination 56 prints L/L) VH: QVQLQQSGTELAKPGASVKFSCKASGYTFSTYWMYWIKQRPGQGLEWIGYLNPSSGHTDYNQKFKDKATLTADKSSSTAYMQLNSLTSEDSAVYYCARKYYGPFGMDYWGQGTSVTVSS VL: EIFLTQSPAIMSASPGEKVTMTCSASTTVSYVHWYQQKSGTSPKRWIYDTSKLASGIPVRFSGSGSGTSYSLTISSMEAEDAATYYCQQWSTNPYTFGGGTKLEIKR	M⁻¹ s⁻¹	30700
Mutation 1-38 (antibody, V domains shown) VH: QVQLQQSGTELAKPGASVKFSCKASGYTFTSYWMYWIKQRPGQGLEWIGYLNPSSGHTDYNQKFKDKATLTADKSSSTAYMQLNSLTSEDSAVYYCARKYYGPFGMDYWGQGTSVTVSS VL: EIFLTQSPAIMSASPGEKVTMTCSASSTVSYVHWYQQKSGTSPKRWLYDTSKLASGIPVRFSGSGSGTSYSLTISSMEAEDAATYYCQQWSSNPYTFGGGTKLEIKR	M⁻¹ s⁻¹	30500
Mutation 1-30 (antibody, V domains shown) VH: QVQLQQSGTELAKPGASVKFSCKASGYTFTSYWMYWIKQRPGQGLEWIGYLNPSSGHTDYNQRFKDKATLTADKSSSTAYMQLNSLTSEDSAVYYCARRYFGPFGMDYWGQGTSVTVSS VL: EIFLTQSPAIMSASPGEKVTMTCSASTTVSYVHWYQQKSGTSPKRWLYDTSKLASGIPVRFSGSGSGTSYSLTISSMEAEDAATYYCQQWSSNPYTFGGGTKLEIKR	M⁻¹ s⁻¹	35800
Mutation 1-33 (antibody, V domains shown) VH: QVQLQQSGTELAKPGASVKFSCKASGYTFSSYWMYWIKQRPGQGLEWIGYINPSTGHTDYNQKFKDKATLTADKSSSTAYMQLNSLTSEDSAVYYCARKYFGPFGMDYWGQGTSVTVSS VL: EIFLTQSPAIMSASPGEKVTMTCSASTSVSYVHWYQQKSGTSPKRWIYDTSKIASGIPVRFSGSGSGTSYSLTISSMEAEDAATYYCQQWSSNPYTFGGGTKLEIKR	M⁻¹ s⁻¹	34700

Reported kon for Mutation 1-32 (antibody, V domains shown) VH: QVQLQQSGTELAKPGASVKFSCKASGYTFSTYWMYWIKQRPGQGLEWIGYLNPSSGHTDYNQRFKDKATLTADKSSSTAYMQLNSLTSEDSAVYYCARKYWGPFGMDYWGQGTSVTVSS VL: EIFLTQSPAIMSASPGEKVTMTCSASSTVSYVHWYQQKSGTSPKRWLYDTSKIASGIPVRFSGSGSGTSYSLTISSMEAEDAATYYCQQWSSNPYTFGGGTKLEIKR was 32400

Noted for Mutation 1-22 (antibody, V domains shown) VH: QVQLQQSGTELAKPGASVKFSCKASGYTFTTYWMYWIKQRPGQGLEWIGYLNPSSGHTDYNQKFKDKATLTADKSSSTAYMQLNSLTSEDSAVYYCARKYYGPFGMDYWGQGTSVTVSS VL: EIFLTQSPAIMSASPGEKVTMTCSASTTVSYVHWYQQKSGTSPKRWLYDTSKLASGIPVRFSGSGSGTSYSLTISSMEAEDAATYYCQQWSSQPYTFGGGTKLEIKR : its kon reads 47800
